# test method notes: activity coefficient (dimensionless); of the first substance listed, at infinite dilution; xn = mol fraction of the nth substance listed
# test settings: 313.15 K; 101 kPa; Liquid; Chromatography; x1 = 0
Binning scheme for activity coefficient: category 1: < 1; category 2: ≥ 1 and < 3; category 3: ≥ 3

Quick check: band for C1CCOC1 [tetrahydrofuran] + CCCCCCn1cc[n+](C)c1.O=C([O-])C(F)(F)F
category 2

Entry CCc1ccccc1 [ethylbenzene] + CCCCCCn1cc[n+](C)c1.O=C([O-])C(F)(F)F belongs to which category?
category 3

GET /class?item= Cc1cccc(C)c1 [1,3-dimethylbenzene] + CCCCCCn1cc[n+](C)c1.O=C([O-])C(F)(F)F
category 3

Lab log: Cc1ccc(C)cc1 [1,4-dimethylbenzene] + CCCCCCn1cc[n+](C)c1.O=C([O-])C(F)(F)F — assign activity coefficient category
category 3

Textbook exercise: identify the category of the compound given here, Clc1ccccc1 [chlorobenzene] + CCCCCCn1cc[n+](C)c1.O=C([O-])C(F)(F)F , according to its measured value.
category 2

Sort into band: CC#N [acetonitrile] + CCCCCCn1cc[n+](C)c1.O=C([O-])C(F)(F)F
category 2

For this compound, which bin applies? CO [methanol] + CCCCCCn1cc[n+](C)c1.O=C([O-])C(F)(F)F
category 1

Bin? C=Cc1ccccc1 [styrene] + CCCCCCn1cc[n+](C)c1.O=C([O-])C(F)(F)F
category 2

Would you mind sorting ClC(Cl)(Cl)Cl [tetrachloromethane] + CCCCCCn1cc[n+](C)c1.O=C([O-])C(F)(F)F into the appropriate category?
category 1

Input ClCCCl [1,2-dichloroethane] + CCCCCCn1cc[n+](C)c1.O=C([O-])C(F)(F)F ; output its category
category 1

Given CC(C)O [propan-2-ol] + CCCCCCn1cc[n+](C)c1.O=C([O-])C(F)(F)F , name the class its activity coefficient places it in.
category 1

Note: place this compound into its band. Item: CCOC(C)=O [ethyl acetate] + CCCCCCn1cc[n+](C)c1.O=C([O-])C(F)(F)F
category 2

###

# test method notes: activity coefficient (dimensionless); of the first substance listed, at infinite dilution; xn = mol fraction of the nth substance listed
# test settings: 343.15 K; 101 kPa; Liquid; Chromatography; x1 = 0
measure: activity coefficient
Lab note: write the figure by itself, no unit.

Give the measured activity coefficient of C1COCCO1 [1,4-dioxane] + CCCCCCn1cc[n+](C)c1.O=C([O-])C(F)(F)F .
1.95

Consider the compound shown here: Cc1cccc(C)c1 [1,3-dimethylbenzene] + CCCCCCn1cc[n+](C)c1.O=C([O-])C(F)(F)F What is its recorded activity coefficient?
4.42

Which activity coefficient value belongs to CC(C)O [propan-2-ol] + CCCCCCn1cc[n+](C)c1.O=C([O-])C(F)(F)F ?
0.39

Please look up its activity coefficient: c1ccccc1 [benzene] + CCCCCCn1cc[n+](C)c1.O=C([O-])C(F)(F)F
2.12

Look up activity coefficient for this compound: ClC(Cl)(Cl)Cl [tetrachloromethane] + CCCCCCn1cc[n+](C)c1.O=C([O-])C(F)(F)F
1.02

Which activity coefficient reading was recorded for the compound CCc1ccccc1 [ethylbenzene] + CCCCCCn1cc[n+](C)c1.O=C([O-])C(F)(F)F ?
4.32

Look at this compound and give its reported activity coefficient. CCCO [propan-1-ol] + CCCCCCn1cc[n+](C)c1.O=C([O-])C(F)(F)F
0.27

activity coefficient for CO [methanol] + CCCCCCn1cc[n+](C)c1.O=C([O-])C(F)(F)F ?
0.13

###

# test method notes: activity coefficient (dimensionless); of the first substance listed, at infinite dilution; xn = mol fraction of the nth substance listed
# test settings: 343.15 K; 101 kPa; Liquid; Chromatography; x1 = 0
measure: activity coefficient
Give a plain numeric answer without units written out.

Item under review: ClCCl [dichloromethane] + CCCCCCn1cc[n+](C)c1.O=C([O-])C(F)(F)F . Reported activity coefficient?
0.7

Item Cc1ccccc1C [1,2-dimethylbenzene] + CCCCCCn1cc[n+](C)c1.O=C([O-])C(F)(F)F has what recorded activity coefficient?
4.1

So what does the record say about activity coefficient for ClC(Cl)Cl [trichloromethane] + CCCCCCn1cc[n+](C)c1.O=C([O-])C(F)(F)F ?
0.45

Look up activity coefficient for this molecule: CCO [ethanol] + CCCCCCn1cc[n+](C)c1.O=C([O-])C(F)(F)F
0.24

###

Assign activity coefficient to each entry below.
# test method notes: activity coefficient (dimensionless); of the first substance listed, at infinite dilution; xn = mol fraction of the nth substance listed
# test settings: 313.15 K; 101 kPa; Liquid; Chromatography; x1 = 0
Answer with the value's number alone.

Name the reported activity coefficient value associated with the compound Brc1ccccc1 [bromobenzene] + CCCCCCn1cc[n+](C)c1.O=C([O-])C(F)(F)F
2.2

Give the measured activity coefficient of ClC(Cl)Cl [trichloromethane] + CCCCCCn1cc[n+](C)c1.O=C([O-])C(F)(F)F .
0.12

activity coefficient for CC(C)=O [acetone] + CCCCCCn1cc[n+](C)c1.O=C([O-])C(F)(F)F ?
1.69

Consider the compound shown here: CCO [ethanol] + CCCCCCn1cc[n+](C)c1.O=C([O-])C(F)(F)F What is its recorded activity coefficient?
0.22

Fill in: activity coefficient of ClCCl [dichloromethane] + CCCCCCn1cc[n+](C)c1.O=C([O-])C(F)(F)F is ___
0.65

Form field: reported activity coefficient of CCCO [propan-1-ol] + CCCCCCn1cc[n+](C)c1.O=C([O-])C(F)(F)F
0.24

What activity coefficient value was documented for this compound, C1COCCO1 [1,4-dioxane] + CCCCCCn1cc[n+](C)c1.O=C([O-])C(F)(F)F ?
1.92

Look up activity coefficient: Cc1ccccc1C [1,2-dimethylbenzene] + CCCCCCn1cc[n+](C)c1.O=C([O-])C(F)(F)F
3.67

Consider the compound c1ccccc1 [benzene] + CCCCCCn1cc[n+](C)c1.O=C([O-])C(F)(F)F and give its measured activity coefficient.
2.07

###

# test method notes: activity coefficient (dimensionless); of the first substance listed, at infinite dilution; xn = mol fraction of the nth substance listed
# test settings: 353.15 K; 101 kPa; Liquid; Chromatography; x1 = 0
Answer each item with its documented activity coefficient.
Simply state the number, no unit and no words.

Bench note: what activity coefficient did ClC(Cl)Cl [trichloromethane] + CCCCCCn1cc[n+](C)c1.O=C([O-])C(F)(F)F show?
0.68

Dear colleague, I am looking for the recorded activity coefficient of the following compound: Cc1ccc(C)cc1 [1,4-dimethylbenzene] + CCCCCCn1cc[n+](C)c1.O=C([O-])C(F)(F)F
4.42

// lookup activity coefficient for CC(C)O [propan-2-ol] + CCCCCCn1cc[n+](C)c1.O=C([O-])C(F)(F)F
0.4

May I ask what activity coefficient has been recorded for ClCCCl [1,2-dichloroethane] + CCCCCCn1cc[n+](C)c1.O=C([O-])C(F)(F)F ?
1.62

###

# test method notes: activity coefficient (dimensionless); of the first substance listed, at infinite dilution; xn = mol fraction of the nth substance listed
# test settings: 353.15 K; 101 kPa; Liquid; Chromatography; x1 = 0
measure: activity coefficient
Please give the numeric answer without any surrounding text.

Quick one: activity coefficient for Cc1cccc(C)c1 [1,3-dimethylbenzene] + CCCCCCn1cc[n+](C)c1.O=C([O-])C(F)(F)F ?
4.53

Give its activity coefficient value. Item: C=Cc1ccccc1 [styrene] + CCCCCCn1cc[n+](C)c1.O=C([O-])C(F)(F)F
2.68

activity coefficient lookup needed for Brc1ccccc1 [bromobenzene] + CCCCCCn1cc[n+](C)c1.O=C([O-])C(F)(F)F , thanks.
2.36

So what's the measured activity coefficient for this one? CO [methanol] + CCCCCCn1cc[n+](C)c1.O=C([O-])C(F)(F)F
0.16

For the molecule c1ccccc1 [benzene] + CCCCCCn1cc[n+](C)c1.O=C([O-])C(F)(F)F , what activity coefficient is on record?
2.13

Form field: reported activity coefficient of CCOC(C)=O [ethyl acetate] + CCCCCCn1cc[n+](C)c1.O=C([O-])C(F)(F)F
3.15

Reported activity coefficient, molecule CC(C)=O [acetone] + CCCCCCn1cc[n+](C)c1.O=C([O-])C(F)(F)F : ____
1.67

Return reported activity coefficient; argument: CC#N [acetonitrile] + CCCCCCn1cc[n+](C)c1.O=C([O-])C(F)(F)F
1.28

Can you look up the measured activity coefficient of CC(C)CO [2-methyl-1-propanol] + CCCCCCn1cc[n+](C)c1.O=C([O-])C(F)(F)F for me?
0.31

Any idea what activity coefficient was measured for C1COCCO1 [1,4-dioxane] + CCCCCCn1cc[n+](C)c1.O=C([O-])C(F)(F)F ?
1.95

Recorded activity coefficient for Clc1ccccc1 [chlorobenzene] + CCCCCCn1cc[n+](C)c1.O=C([O-])C(F)(F)F , please?
2.2
